# experimental.target: DPPIV (Homo sapiens, UniProt P27487)
# Sequence (P27487 whole entry, species assumed): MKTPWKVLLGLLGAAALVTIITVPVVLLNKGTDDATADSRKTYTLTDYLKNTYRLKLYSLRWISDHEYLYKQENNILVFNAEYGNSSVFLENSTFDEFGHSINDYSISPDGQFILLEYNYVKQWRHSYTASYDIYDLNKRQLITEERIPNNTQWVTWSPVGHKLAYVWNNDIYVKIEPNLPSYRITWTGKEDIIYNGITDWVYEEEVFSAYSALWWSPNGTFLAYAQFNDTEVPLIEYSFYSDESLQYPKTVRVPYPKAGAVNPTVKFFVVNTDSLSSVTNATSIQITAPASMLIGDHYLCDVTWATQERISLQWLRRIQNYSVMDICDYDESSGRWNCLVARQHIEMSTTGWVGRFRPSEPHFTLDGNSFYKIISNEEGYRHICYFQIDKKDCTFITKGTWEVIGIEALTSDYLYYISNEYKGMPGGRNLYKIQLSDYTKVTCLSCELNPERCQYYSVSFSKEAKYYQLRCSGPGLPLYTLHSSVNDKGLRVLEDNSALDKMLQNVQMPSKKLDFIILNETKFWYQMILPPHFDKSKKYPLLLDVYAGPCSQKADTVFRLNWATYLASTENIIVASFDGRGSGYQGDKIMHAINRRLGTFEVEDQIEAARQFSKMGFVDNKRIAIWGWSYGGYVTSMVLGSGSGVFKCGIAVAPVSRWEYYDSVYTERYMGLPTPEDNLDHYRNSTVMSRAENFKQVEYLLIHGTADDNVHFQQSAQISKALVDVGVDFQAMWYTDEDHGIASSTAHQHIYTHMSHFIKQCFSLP
experimental.endpoint: pIC50
Scale: pIC50 equals -log10([C]), with [C] in mol/L.

**Q:** Query for DPPIV (Homo sapiens, UniProt P27487): what pIC50 does the record show for N[C@@H](CCN1CCn2c(nnc2C(F)(F)F)C1)Cc1cc(F)c(F)cc1F [Compound 24a] ?
**A:** 7.09

* * *

# System: PathHunter NHRPro cell lines
# experiment: PathHunter NHRPro cell assay, agonist format (Examples 90-92)
# Format: cell-based
# experimental.conditions: AGTR1, Arrestin, read-out: RC50 (EC50)
experimental.endpoint: pEC50
Scale: pEC50 equals -log10([C]), with [C] in mol/L.

**Q:** # input substance: Angiotensin II (DRVYIHPF; Angiotensin-2; UniProt P01019 25-32, looked up) ; wanted: its pEC50
**A:** 7.99
